Provenance of the data: patent US12723255B2

# experimental.details: kinetic analysis, non-endpoint assay at 23° C.
# Type: biochemical
# test.context: 23° C.; purified His-tagged protein; standard error in parenthetical; read-out: Km Quizalofop
attribute.measured: Km (µM)
Value expressed in µM; do not type the unit.

The cases that follow already have their Km on record.
>>> observed_value("MON-HT6: engineered oxygenase protein, amino acid sequence SEQ ID NO:31 (protein) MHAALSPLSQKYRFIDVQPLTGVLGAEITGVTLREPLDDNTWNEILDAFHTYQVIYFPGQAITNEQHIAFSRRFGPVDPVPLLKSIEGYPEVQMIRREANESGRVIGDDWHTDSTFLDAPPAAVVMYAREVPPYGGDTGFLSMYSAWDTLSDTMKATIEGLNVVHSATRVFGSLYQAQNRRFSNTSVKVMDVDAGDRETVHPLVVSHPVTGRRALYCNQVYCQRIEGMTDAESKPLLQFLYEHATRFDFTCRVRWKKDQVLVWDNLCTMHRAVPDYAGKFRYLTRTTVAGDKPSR")
100
>>> observed_value("MON-HT10: engineered oxygenase protein, amino acid sequence SEQ ID NO:43 (protein) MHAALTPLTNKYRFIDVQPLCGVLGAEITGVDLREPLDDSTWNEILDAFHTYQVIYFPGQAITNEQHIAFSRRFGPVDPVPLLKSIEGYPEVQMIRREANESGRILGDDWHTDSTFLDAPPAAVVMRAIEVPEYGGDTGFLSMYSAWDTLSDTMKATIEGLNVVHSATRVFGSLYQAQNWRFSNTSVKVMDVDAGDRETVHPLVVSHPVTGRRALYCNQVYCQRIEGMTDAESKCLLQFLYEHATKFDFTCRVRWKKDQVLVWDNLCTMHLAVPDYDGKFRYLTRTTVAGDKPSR")
130
>>> observed_value("MON-HT8: engineered oxygenase protein, amino acid sequence SEQ ID NO:37 (protein) MHAALTPLTNKYRFIDVQPLTGVLGAEITGVDLREPLDDSTWNEILDAFHTYQVIYFPGQAITNEQHIAFSRRFGPVDPVPILKSIEGYPEVQMIRREANESGRVIGDDWHTDSTFLDAPPAAVVMRAIEVPEYGGDTGFLSMYSAWETLSPTMQATIEGLNVVHSATKVFGSLYQATNWRFSNTSVKVMDVDAGDRETVHPLVVTHPVTGRRALYCNQVYCQKIQGMTDAESKSLLQFLYEHATKFDFTCRVRWKKDQVLVWDNLCTMHRSVPDYGNAFRYLTRTTVAGDKPSR")
110

Quick check: Km of MON-HT9: engineered oxygenase protein, amino acid sequence SEQ ID NO:40 (protein) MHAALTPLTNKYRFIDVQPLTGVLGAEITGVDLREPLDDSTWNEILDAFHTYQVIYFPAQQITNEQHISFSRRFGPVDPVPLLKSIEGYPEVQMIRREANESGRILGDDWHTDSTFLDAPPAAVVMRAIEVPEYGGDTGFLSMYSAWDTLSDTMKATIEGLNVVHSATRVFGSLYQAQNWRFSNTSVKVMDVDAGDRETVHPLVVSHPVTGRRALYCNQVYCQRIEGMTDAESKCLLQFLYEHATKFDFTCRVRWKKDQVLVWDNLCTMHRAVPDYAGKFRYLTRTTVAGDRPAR ?
100
